System: human FXa (Homo sapiens)
Construct: purchased Cosmobio-ERL HFXa-1011
Sequence (P00742 235-488 limits assumed): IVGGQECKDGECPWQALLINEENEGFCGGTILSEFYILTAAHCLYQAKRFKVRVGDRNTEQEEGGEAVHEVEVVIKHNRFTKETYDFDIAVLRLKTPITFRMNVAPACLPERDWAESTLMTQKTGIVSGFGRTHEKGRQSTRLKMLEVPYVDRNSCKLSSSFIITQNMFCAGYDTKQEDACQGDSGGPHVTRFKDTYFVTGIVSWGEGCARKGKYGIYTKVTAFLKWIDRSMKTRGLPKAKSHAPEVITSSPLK
Sequence (P00742 41-179 partner limits assumed): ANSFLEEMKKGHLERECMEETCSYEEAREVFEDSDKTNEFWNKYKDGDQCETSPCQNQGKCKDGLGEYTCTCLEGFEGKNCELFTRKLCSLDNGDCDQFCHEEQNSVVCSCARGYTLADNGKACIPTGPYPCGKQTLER
Protocol: FXa inhibitory action (IC50), end point method
Assay type: biochemical
Details: 37° C. for 15 minutes, read-out: FXa 50% inhibitory concentration
pIC50: −log10 of the molar value.
Property name: pIC50

a = O=C(c1ccc(-c2cccc[n+]2[O-])cc1)N1CCN(S(=O)(=O)c2ccc3cc(Cl)ccc3c2)CC1
b = O=C(c1ccc(-c2cc[n+]([O-])cc2)cc1)N1CCN(S(=O)(=O)c2ccc3cc(Cl)ccc3c2)CC1
Thinking about recorded pIC50 values, which is higher, a or b ? State your choice using its label. a
